Where do these numbers come from? They come from patent US5596009A.

target: PGl2 receptor (Homo sapiens, UniProt P43119); construct: human blood platelet membrane fraction (0.3 mg protein) was added; test: Inhibitory activity on binding of ^3 H-iloprost to PGl2 receptor on human blood platelet membrane fraction; details: human blood platelet membrane fraction (0.3 mg protein), 10 nM [^3 H]-iloprost, pH 7.4, 24° C., 30 min; read-out: IC50 (inhibition of [^3 H]-iloprost binding to PGl2 receptor)
Sequence (P43119 whole entry): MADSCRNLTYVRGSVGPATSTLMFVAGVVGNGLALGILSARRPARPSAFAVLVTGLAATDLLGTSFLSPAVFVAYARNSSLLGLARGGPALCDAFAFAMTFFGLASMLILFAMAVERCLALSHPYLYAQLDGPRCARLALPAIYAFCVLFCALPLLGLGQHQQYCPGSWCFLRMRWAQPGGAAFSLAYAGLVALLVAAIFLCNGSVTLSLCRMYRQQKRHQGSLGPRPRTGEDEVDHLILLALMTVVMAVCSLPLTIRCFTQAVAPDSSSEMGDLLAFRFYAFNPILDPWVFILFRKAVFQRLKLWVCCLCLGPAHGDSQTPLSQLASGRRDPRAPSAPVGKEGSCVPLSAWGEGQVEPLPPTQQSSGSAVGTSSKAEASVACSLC
Recorded IC50 values for a group of compounds are listed next.
measured property: IC50 (µM)

>>> number("CCCN(CC1CCc2c(cccc2OCC(=O)O)C1)C(=O)CN(Cc1ccccc1)c1ccccc1 (stereo not drawn) [8 (d)]")
1.8
>>> number("CCCN(CCC1CCc2c(cccc2OCC(=O)O)C1)C(=O)CN(Cc1ccccc1)c1ccccc1 (stereo not drawn) [10 (b)]")
8.4
>>> number("O=C(O)COc1cccc2c1CCCC2CCC(=O)N(Cc1ccccc1)c1ccccc1 (stereo not drawn) [3 (l)]")
2.9
>>> number("O=C(O)COc1cccc2c1CCCC2CCCC(=O)N(Cc1ccccc1)Cc1ccccc1 (stereo not drawn) [3 (bb)]")
4.1
>>> number("O=C(O)COc1cccc2c1CCCC2CCC(=O)N(Cc1ccccc1)Cc1ccccc1 (stereo not drawn) [3 (m)]")
0.32
>>> number("O=C(O)COc1cccc2c1CCCC2CCCC(=O)N(c1ccccc1)c1ccccc1 (stereo not drawn) [3 (dd)]")
1.7
>>> number("CN(CC1CCc2c(cccc2OCC(=O)O)C1)C(=O)NC(c1ccccc1)c1ccccc1 (stereo not drawn) [Example 7]")
6.6
>>> number("O=C(O)COc1cccc2c1CCC(CC(=O)NN(c1ccccc1)c1ccccc1)C2 (stereo not drawn) [3 (w)]")
0.02
>>> number("O=C(O)COc1cccc2c1CCCC2CCC(=O)NC(c1ccccc1)c1ccccc1 (stereo not drawn) [3 (o)]")
0.21
>>> number("O=C(O)COc1cccc2c1CCC(CCC(=O)NN=C(c1ccccc1)c1ccccc1)C2 (stereo not drawn) [3 (aa)]")
6
>>> number("COC(=O)COc1cccc2c1CCC(CN(C)C(=O)CN(c1ccccc1)c1ccccc1)C2 (stereo not drawn) [4 (a)]")
2.3
>>> number("CN(CC1CCc2c(cccc2OCC(=O)O)C1)C(=O)CN(Cc1ccccc1)c1ccccc1 (stereo not drawn) [8 (b)]")
3.1
>>> number("O=C(O)COc1cccc2c1CCC(CC(=O)NC(c1ccccc1)c1ccccc1)C2 (stereo not drawn) [3 (v)]")
0.12
>>> number("O=C(O)COc1cccc2c1CCCC2CCC(=O)N(c1ccccc1)c1ccccc1 (stereo not drawn) [Example 3]")
0.68
>>> number("CCCN(CC1CCc2c(cccc2OCC(=O)O)C1)C(=O)CN(c1ccccc1)c1ccccc1 (stereo not drawn) [8 (c)]")
0.18
>>> number("O=C(O)COc1cccc2c1CCCC2CCCC(=O)NC(c1ccccc1)c1ccccc1 (stereo not drawn) [3 (cc)]")
2.7
>>> number("O=C(O)COc1cccc2c1CCC(CCC(=O)NN(c1ccccc1)c1ccccc1)C2 (stereo not drawn) [3 (z)]")
0.1
>>> number("CCCN(CCC1CCc2c(cccc2OCC(=O)O)C1)C(=O)CN(c1ccccc1)c1ccccc1 (stereo not drawn) [10 (a)]")
0.48
